target under test: T1, Class I HLA molecule A*0101 in recombinant form
T1 MHC heavy: not shown
test description: iTopia ELISA-like peptide-HLA binding
observable: Bond results
Just the number plus its unit, please.

# annotated cases, reported Bond results shown
The value of Bond results measured for the binder LIYGASSRA [VK3-20 peptide No 48 LIYGASSRA] turned out to be 1%

The value of Bond results measured for the binder VLTQSPGTL [VK3-20 peptide No 3 VLTQSPGTL] turned out to be 0%

The value of Bond results measured for the binder GQAPRLLIY [VK3-20 peptide No 42 GQAPRLLIY] turned out to be 0%

The value of Bond results measured for the binder IVLTQSPGT [VK3-20 peptide No 2 IVLTQSPGT] turned out to be 1%

***
The value of Bond results measured for the binder SYLAWYQQK [VK3-20 peptide No 32 SYLAWYQQK] turned out to be 0%

The value of Bond results measured for the binder TLSCRASQI (also called P20) [VK3-20 peptide No 20 TLSCRASQI] turned out to be 1%

The value of Bond results measured for the binder FTLTISRLE [VK3-20 peptide No 72 FTLTISRLE] turned out to be 4%

The value of Bond results measured for the binder RLEPEDFAV [VK3-20 peptide No 78 RLEPEDFAV] turned out to be 1%

The value of Bond results measured for the binder RTFGQGTKV [VK3-20 peptide No 97 RTFGQGTKV] turned out to be 1%
